src = patent US20220396632A1

- SUBJECT_OF_TEST: T1, Recombinant human PSGL-1(ECD)-hFc1 (R&D Systems, Cat. 3345-PS) (human, UniProt Q14242 42-305)
- T1 construct: Bought; Gln42-Val295 counted on AAC50061; also called PSGL-1-Fc; PSGL-1-hFc1 chimera; not shown: human IgG1 Fc, Pro100-Lys330
- T1 sequence: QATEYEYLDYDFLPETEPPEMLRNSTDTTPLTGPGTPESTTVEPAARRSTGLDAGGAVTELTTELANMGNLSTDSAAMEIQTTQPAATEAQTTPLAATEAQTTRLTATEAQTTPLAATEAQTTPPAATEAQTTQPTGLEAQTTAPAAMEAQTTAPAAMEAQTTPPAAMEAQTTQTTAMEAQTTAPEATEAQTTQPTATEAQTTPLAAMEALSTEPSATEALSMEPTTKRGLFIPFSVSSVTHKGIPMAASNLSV
- ASSAY_OVERVIEW: Octet tandem; competitor 18F17
PROPERTY_LABEL: % binding of analyte mAb (%)
Please give a number only; it is taken to be in %.

Below, 3 binders whose answers are already recorded.
>  <BINDER>
15A7 (antibody, V domains shown, Control mAb, recombinant; also called h15A7; 15A17) VH: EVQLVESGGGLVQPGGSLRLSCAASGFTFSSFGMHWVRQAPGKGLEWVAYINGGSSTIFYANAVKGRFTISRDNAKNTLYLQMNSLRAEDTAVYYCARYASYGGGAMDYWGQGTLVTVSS VL: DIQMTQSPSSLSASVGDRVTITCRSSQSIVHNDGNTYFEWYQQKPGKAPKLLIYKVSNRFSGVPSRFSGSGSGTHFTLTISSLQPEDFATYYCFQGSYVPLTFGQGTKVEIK

>  <% binding of analyte mAb (%)>
86.6

$$$$
>  <BINDER>
18F17 (antibody, V domains shown, Non-functional anti-PSGL-1 mAb (Verseau); only variable domains given) VH: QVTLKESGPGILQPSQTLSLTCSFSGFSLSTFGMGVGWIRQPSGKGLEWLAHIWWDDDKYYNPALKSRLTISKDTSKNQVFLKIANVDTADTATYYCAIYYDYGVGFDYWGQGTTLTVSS VL: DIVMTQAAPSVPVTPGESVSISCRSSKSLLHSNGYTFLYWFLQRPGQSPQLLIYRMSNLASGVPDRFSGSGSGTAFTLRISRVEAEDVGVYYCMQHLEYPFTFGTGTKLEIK

>  <% binding of analyte mAb (%)>
28.2

$$$$
>  <BINDER>
19N05 (antibody, V domains shown, From mouse immunisation; only variable domains given) VH: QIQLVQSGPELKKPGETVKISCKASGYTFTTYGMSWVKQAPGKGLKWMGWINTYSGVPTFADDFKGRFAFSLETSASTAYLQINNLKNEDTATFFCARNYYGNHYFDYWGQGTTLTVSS VL: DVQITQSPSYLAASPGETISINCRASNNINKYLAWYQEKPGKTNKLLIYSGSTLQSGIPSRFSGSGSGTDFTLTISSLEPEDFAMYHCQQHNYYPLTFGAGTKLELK

>  <% binding of analyte mAb (%)>
65.3

$$$$

As a next step, examine the binder that follows.
Record summary for 19L04 (antibody, IgG4, V domains shown, From mouse immunisation; only variable domains given) VH: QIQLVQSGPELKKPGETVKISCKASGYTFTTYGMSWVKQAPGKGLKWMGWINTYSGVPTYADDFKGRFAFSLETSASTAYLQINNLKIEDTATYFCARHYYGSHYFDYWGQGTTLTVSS VL: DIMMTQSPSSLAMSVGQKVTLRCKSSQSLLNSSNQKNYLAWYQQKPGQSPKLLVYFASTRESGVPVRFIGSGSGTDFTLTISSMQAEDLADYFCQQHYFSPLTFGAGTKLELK : reported % binding of analyte mAb = 81.4
